molecular target: p110γ (Homo sapiens (Human), UniProt P48736); assay: PI 3-Kinase (human) HTRF assay, p110γ; format: biochemical; conditions: in vitro; read-out: PI3K γ IC50
Sequence (P48736 whole entry): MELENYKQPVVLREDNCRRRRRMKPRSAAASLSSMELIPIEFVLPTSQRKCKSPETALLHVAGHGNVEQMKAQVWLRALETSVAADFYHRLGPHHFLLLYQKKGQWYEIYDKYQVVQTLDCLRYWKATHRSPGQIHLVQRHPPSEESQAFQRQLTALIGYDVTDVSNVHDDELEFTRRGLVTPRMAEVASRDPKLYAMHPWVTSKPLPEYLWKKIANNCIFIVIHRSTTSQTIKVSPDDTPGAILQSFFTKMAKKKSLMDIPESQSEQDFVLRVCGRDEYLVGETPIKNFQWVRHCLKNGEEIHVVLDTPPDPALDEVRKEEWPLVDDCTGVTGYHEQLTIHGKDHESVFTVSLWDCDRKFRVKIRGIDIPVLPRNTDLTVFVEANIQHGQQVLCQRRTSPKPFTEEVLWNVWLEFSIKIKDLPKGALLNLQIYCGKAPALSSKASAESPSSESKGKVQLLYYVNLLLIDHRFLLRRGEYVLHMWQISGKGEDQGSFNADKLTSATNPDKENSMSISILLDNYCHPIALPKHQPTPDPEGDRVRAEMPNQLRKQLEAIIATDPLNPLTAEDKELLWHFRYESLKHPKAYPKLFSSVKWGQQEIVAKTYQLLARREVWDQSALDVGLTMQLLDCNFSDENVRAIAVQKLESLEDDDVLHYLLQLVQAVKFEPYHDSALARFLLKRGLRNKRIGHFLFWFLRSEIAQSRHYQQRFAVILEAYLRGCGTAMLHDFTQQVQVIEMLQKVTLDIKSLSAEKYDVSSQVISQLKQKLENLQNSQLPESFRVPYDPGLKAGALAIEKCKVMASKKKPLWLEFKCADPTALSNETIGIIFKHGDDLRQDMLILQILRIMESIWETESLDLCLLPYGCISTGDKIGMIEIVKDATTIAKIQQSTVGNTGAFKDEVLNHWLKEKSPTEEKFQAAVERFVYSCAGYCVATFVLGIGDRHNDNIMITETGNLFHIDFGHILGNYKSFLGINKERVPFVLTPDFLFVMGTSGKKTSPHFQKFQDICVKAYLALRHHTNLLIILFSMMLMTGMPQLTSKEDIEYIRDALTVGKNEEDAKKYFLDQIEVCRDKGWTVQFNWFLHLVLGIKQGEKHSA
pIC50: −log10 of the molar value.
Experimental endpoint: pIC50

// below: answered compounds
* C[C@H]1CN(C(=O)C2CN(c3cnc4ccc(-c5ccc6oc(N)nc6c5)cc4n3)C2)CCN1 | > 6.00
* CN1CCN(c2cnc3ccc(-c4ccc5oc(N)nc5c4)cc3n2)C(=O)C1 | > 5.00
* CC(Oc1nc(-c2ccc3oc(N)nc3c2)cnc1N)C(F)(F)F (stereo not drawn) | > 5.00
* Nc1nc2cc(-c3ccc4oc(N)nc4c3)ccc2o1 | > 7.00
* Nc1nc2cc(-c3ccc4ncc(N5CCC(O)C5)nc4c3)ccc2o1 (stereo not drawn) | > 7.00

Challenge: Return value of pIC50 for input Cc1cc(-c2ccc3ncc(C(=O)N4CCOCC4)n3c2)cc2nc(N)oc12 , no commentary.
Response given: > 6.00

Challenge: Annotate the compound C[C@H]1CN(c2cnc3ccc(-c4ccc5nc(N)sc5c4)cc3n2)CCN1 with its measured pIC50.
Response given: > 5.00

Source of measurements: patent US11547697B2
